test: Part A single-ascending-dose plasma PK in healthy subjects; format: in vivo, human; settings: human, plasma, iv, 0.5 g, part A cohort 2, single 0.5 g, 3-h i.v. infusion; read-out: AUC0–t
OUTCOME MEASURE: AUC(0-t) (ng·h/mL)
# unit: ng·h/mL | format: bare number

Query block: Please report the measured AUC(0-t) for CC1=C[C@@H]2CN(C(=O)N2OS(=O)(=O)O)[C@@H]1C(N)=O
Result block: 47400

Origin of the recorded values: paper PMC7318034
